Measured Fluorescence wavelength, listed per entry for reference.
Assay comment: Fluorescence characteristics of base analog nucleosides
Format: physicochemical
Particulars: deoxyribonucleoside derivative
Write the number in nm without appending the unit.

Please review the entries below; each comes with its answer.
{"columns": ["Molecule", "Fluorescence wavelength / nm"],
 "data": [
  ["c1csc(-c2ccnc3nc[nH]c23)c1 [ds, 7-(2-thienyl)-imidazo[4,5-b]pyridine, reference compound]", 429],
  ["Nc1nc(-c2ccc(-c3ccc(-c4cccs4)s3)s2)c2ncn([C@H]3C[C@H](O)[C@@H](CO)O3)c2n1 [dsss]", 508],
  ["OC[C@H]1O[C@@H](n2cnc3c(-c4ccc(-c5cccs5)s4)ccnc32)C[C@@H]1O [dDss]", 442]
]}

Q) Please report the measured Fluorescence wavelength for Nc1nc(-c2nccs2)c2ncn([C@H]3C[C@H](O)[C@@H](CO)O3)c2n1 [dv, reference compound]
A) 461

----------
Assay comment: Fluorescence characteristics of base analog nucleosides
Type: physicochemical
Particulars: deoxyribonucleoside derivative
Listed below: Molar absoption coefficient ε values for each entry.
Report the figure in M⁻¹ cm⁻¹ without appending any unit label.

Here are 2 molecules together with their reported answers.
{"columns": ["Molecule", "Measurement label", "Endpoint unit", "Result number"],
 "data": [
  ["OC[C@H]1O[C@@H](n2cnc3c(-c4cccs4)ccnc32)C[C@@H]1O [dDs, reference compound]", "Molar absoption coefficient ε", "M⁻¹ cm⁻¹", 22000],
  ["OC[C@H]1O[C@@H](n2ccc3c(-c4ccc(-c5cccs5)s4)ccnc32)C[C@@H]1O", "Molar absoption coefficient ε", "M⁻¹ cm⁻¹", 21500]
]}

Q) Please look at this molecule and report its Molar absoption coefficient ε: OC[C@H]1O[C@@H](n2cnc3c(-c4ccc(-c5ccc(-c6cccs6)s5)s4)ccnc32)C[C@@H]1O
A) 34800

Q) Give the value of Molar absoption coefficient ε reported for the following: c1csc(-c2ccnc3nc[nH]c23)c1 [ds, 7-(2-thienyl)-imidazo[4,5-b]pyridine, reference compound]
A) 11200

Q) Give Molar absoption coefficient ε for the following molecule: Nc1nc(-c2nccs2)c2ncn([C@H]3C[C@H](O)[C@@H](CO)O3)c2n1 [dv, reference compound]
A) 8400

----------
Assay comment: Fluorescence characteristics of base analog nucleosides
Format: physicochemical
Particulars: deoxyribonucleoside derivative
Values of Excitation wavelength greater than or equal to 400 nm map to Condition met; values below map to Condition not met.

{"columns": ["Molecule", "Label value"],
 "data": [
  ["OC[C@H]1O[C@@H](n2cnc3c(-c4ccc(-c5cccs5)s4)ccnc32)C[C@@H]1O [dDss]", "Condition not met"],
  ["OC[C@H]1O[C@@H](n2ccc3c(-c4ccc(-c5cccs5)s4)ccnc32)C[C@@H]1O [dDsas]", "Condition not met"],
  ["OC[C@H]1O[C@@H](n2ccc3c(-c4ncc(-c5cccs5)s4)ccnc32)C[C@@H]1O [dDvas]", "Condition not met"],
  ["Nc1nc(-c2ccc(-c3ccc(-c4cccs4)s3)s2)c2ncn([C@H]3C[C@H](O)[C@@H](CO)O3)c2n1 [dsss]", "Condition met"]
]}

Now consider the entry below.
Q) Hi, just wondering whether OC[C@H]1O[C@@H](n2ccc3c(-c4ccc(-c5nccs5)s4)ccnc32)C[C@@H]1O [dDsav] shows Excitation wavelength of 400 nm or higher.
A) Condition not met

----------
Assay comment: Fluorescence characteristics of base analog nucleosides
Assay type: physicochemical
Particulars: deoxyribonucleoside derivative
Let's look at some compounds and their measured Stokes shift.
The reply must contain the numeric value and, after it, the unit.

{"columns": ["Compound", "Stokes shift"],
 "data": [
  ["OC[C@H]1O[C@@H](n2ccc3c(-c4ncc(-c5cccs5)s4)ccnc32)C[C@@H]1O", "71 nm"],
  ["OC[C@H]1O[C@@H](n2cnc3c(-c4ccc(-c5cccs5)s4)ccnc32)C[C@@H]1O", "71 nm"],
  ["OC[C@H]1O[C@@H](n2ccc3c(-c4ccc(-c5nccs5)s4)ccnc32)C[C@@H]1O", "77 nm"]
]}

Okay, next one:
Q) Please supply the value of reported Stokes shift for the item OC[C@H]1O[C@@H](n2cnc3c(-c4cccs4)ccnc32)C[C@@H]1O [dDs, reference compound]
A) 54 nm

----------
Assay comment: Fluorescence characteristics of base analog nucleosides
Format: physicochemical
Particulars: deoxyribonucleoside derivative
Collected Absorption maximum values appear next to each entry.
Expressed in nm, but write only the number.

{"columns": ["Compound", "Absorption maximum (nm)"],
 "data": [
  ["Nc1nc(-c2ccc(-c3ccc(-c4cccs4)s3)s2)c2ncn([C@H]3C[C@H](O)[C@@H](CO)O3)c2n1", 414],
  ["Nc1nc(-c2nccs2)c2ncn([C@H]3C[C@H](O)[C@@H](CO)O3)c2n1 [dv, reference compound]", 363],
  ["OC[C@H]1O[C@@H](n2ccc3c(-c4ncc(-c5cccs5)s4)ccnc32)C[C@@H]1O", 377]
]}

Q) Quick one: give measured Absorption maximum for OC[C@H]1O[C@@H](n2cnc3c(-c4cccs4)ccnc32)C[C@@H]1O [dDs, reference compound]
A) 313

----------
Assay comment: Fluorescence characteristics of base analog nucleosides
Assay type: physicochemical
Particulars: deoxyribonucleoside derivative
Decision: Fluorescence intensity (ε × φ) beneath 3000 gives label 1; Fluorescence intensity (ε × φ) meeting or exceeding 3000 gives label 0.

{"columns": ["Molecule", "Label value"],
 "data": [
  ["OC[C@H]1O[C@@H](n2ccc3c(-c4ccc(-c5cccs5)s4)ccnc32)C[C@@H]1O", "label 1"],
  ["Nc1nc(-c2nccs2)c2ncn([C@H]3C[C@H](O)[C@@H](CO)O3)c2n1 [dv, reference compound]", "label 0"],
  ["OC[C@H]1O[C@@H](n2ccc3c(-c4ccc(-c5nccs5)s4)ccnc32)C[C@@H]1O", "label 1"],
  ["c1csc(-c2ccnc3nc[nH]c23)c1 [ds, 7-(2-thienyl)-imidazo[4,5-b]pyridine, reference compound]", "label 1"],
  ["OC[C@H]1O[C@@H](n2cnc3c(-c4ccc(-c5cccs5)s4)ccnc32)C[C@@H]1O", "label 0"]
]}

Q) Could you please tell me whether Fluorescence intensity (ε × φ) recorded for Nc1nc(-c2ccc(-c3ccc(-c4cccs4)s3)s2)c2ncn([C@H]3C[C@H](O)[C@@H](CO)O3)c2n1 is less than 3000?
A) label 0

Q) Item OC[C@H]1O[C@@H](n2cnc3c(-c4cccs4)ccnc32)C[C@@H]1O [dDs, reference compound] : Fluorescence intensity (ε × φ) beneath 3000, strictly?
A) label 0

Q) Problem: For the molecule OC[C@H]1O[C@@H](n2cnc3c(-c4ccc(-c5ccc(-c6cccs6)s5)s4)ccnc32)C[C@@H]1O , is Fluorescence intensity (ε × φ) under 3000?
A) label 0

Q) Quick check: does OC[C@H]1O[C@@H](n2ccc3c(-c4ncc(-c5cccs5)s4)ccnc32)C[C@@H]1O have Fluorescence intensity (ε × φ) under 3000?
A) label 0

----------
Assay comment: Fluorescence characteristics of base analog nucleosides
Assay type: physicochemical
Particulars: quinine sulfate as a standard
Measurement label: Quantum yield (φ)
Form: value (number only, do not type unit).

Solved cases (3 shown):
{"columns": ["Molecule", "Result number"],
 "data": [
  ["OC[C@H]1O[C@@H](n2cnc3c(-c4ccc(-c5ccc(-c6cccs6)s5)s4)ccnc32)C[C@@H]1O", 0.09],
  ["OC[C@H]1O[C@@H](n2ccc3c(-c4ccc(-c5cccs5)s4)ccnc32)C[C@@H]1O", 0.13],
  ["OC[C@H]1O[C@@H](n2cnc3c(-c4ccc(-c5cccs5)s4)ccnc32)C[C@@H]1O", 0.32]
]}

Q) Identify the reported Quantum yield (φ) for the following entry. Nc1nc(-c2ccc(-c3ccc(-c4cccs4)s3)s2)c2ncn([C@H]3C[C@H](O)[C@@H](CO)O3)c2n1
A) 0.11

Q) Given Nc1nc(-c2nccs2)c2ncn([C@H]3C[C@H](O)[C@@H](CO)O3)c2n1 [dv, reference compound] , respond with its Quantum yield (φ).
A) 0.41

Q) Output measured Quantum yield (φ) for this item: c1csc(-c2ccnc3nc[nH]c23)c1 [ds, 7-(2-thienyl)-imidazo[4,5-b]pyridine, reference compound]
A) 0.23

Q) Look up and state reported Quantum yield (φ) for OC[C@H]1O[C@@H](n2cnc3c(-c4cccs4)ccnc32)C[C@@H]1O [dDs, reference compound]
A) 0.19

Q) Provide only the value of recorded Quantum yield (φ) for OC[C@H]1O[C@@H](n2ccc3c(-c4ccc(-c5nccs5)s4)ccnc32)C[C@@H]1O
A) 0.13

Q) Please report Quantum yield (φ) for the following molecule: OC[C@H]1O[C@@H](n2ccc3c(-c4ncc(-c5cccs5)s4)ccnc32)C[C@@H]1O
A) 0.14

----------
Assay comment: Fluorescence characteristics of base analog nucleosides
Format: physicochemical
Particulars: deoxyribonucleoside derivative
# Lookup of reported Absorption maximum keyed by entry
# output: bare number, implied unit nm

Example entries and their recorded answers appear below.
{"columns": ["Compound", "Absorption maximum (nm)"],
 "data": [
  ["OC[C@H]1O[C@@H](n2ccc3c(-c4ccc(-c5cccs5)s4)ccnc32)C[C@@H]1O", 365],
  ["OC[C@H]1O[C@@H](n2ccc3c(-c4ccc(-c5nccs5)s4)ccnc32)C[C@@H]1O", 365],
  ["OC[C@H]1O[C@@H](n2cnc3c(-c4ccc(-c5cccs5)s4)ccnc32)C[C@@H]1O", 370]
]}

Q) Determine its reported Absorption maximum: c1csc(-c2ccnc3nc[nH]c23)c1 [ds, 7-(2-thienyl)-imidazo[4,5-b]pyridine, reference compound]
A) 353

Q) Identify Absorption maximum associated with the compound OC[C@H]1O[C@@H](n2cnc3c(-c4ccc(-c5ccc(-c6cccs6)s5)s4)ccnc32)C[C@@H]1O
A) 403
